Exercise: for every item that follows, state its recorded viability, T/C.
# Test system: OVCAR-5 complex spheroids with HUVEC/MSC, viability, % test/control
# ASSAY EXPLANATION: Anticancer human tumor OVCAR-5 cell line growth inhibition [AhR];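 further: spheroids exposed to compounds for 7 days; 100% = DMSO vehicle control wells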
# ASSAY CONTEXT: second compound 0.316 µM; first compound 1 µM; stronger effect = lower value
One number for each entry, in %.

Would you please look over these solved cases?
INSERT INTO measurements (compound, assay_value) VALUES
  ('COc1ccc([C@@H](O)c2cc(-c3ncnc4cc(N5CCOCC5)ccc34)c(F)cc2Cl)nn1 + Cc1cncc(-c2nc(NCCc3c[nH]c4ccccc34)c3ncn(C(C)C)c3n2)c1', 80),
  ('COc1cc(Nc2ncc3c(n2)-c2ccc(Cl)cc2C(c2c(F)cccc2OC)=NC3)ccc1C(=O)O + CC(CO)NC(=O)c1cc(-c2ccc(Cl)cc2)nn(-c2cnn(C)c2)c1=O', 60);

response.value for CC1COCCN1c1cc(-c2ccnn2C)c2ccnc(-c3ccn[nH]3)c2n1 (stereo not drawn) + Cc1cncc(-c2nc(NCCc3c[nH]c4ccccc34)c3ncn(C(C)C)c3n2)c1 (field: viability, T/C) = 32.9
